- MEASUREMENT_DESCRIPTION: Body weight / toxicity of a single intraperitoneal injection in HCT-116 colon tumor-bearing nude mice
- PROTOCOL_CONDITIONS: Day 16; single IP injection (QD×1); D1 and D2 400 mg/kg, D3 350 mg/kg, D4 300 mg/kg; Mean±SEM
# reported Average weight of the animals; entries follow
Numeric answer only, unit g assumed.

Which Average weight of the animals is listed for CCCCOC(=O)Nc1ccn(C2OC(COC(=O)CCC(=O)OC[C@H]3O[C@@H](n4ccc(NC(=O)OCc5ccccc5)nc4=O)C(F)(F)[C@@H]3O)C(O)C2(F)F)c(=O)n1 (stereo in doubt) ?
21.48

What would you report for CCCCOC(=O)Nc1ccn([C@H]2O[C@@H](COC(=O)CCC(=O)OC[C@H]3O[C@@H](n4ccc(NC(=O)OCCCC)nc4=O)C(F)(F)[C@@H]3O)[C@H](O)C2(F)F)c(=O)n1 (stereo in doubt) [Compound D2] ?
21.13

What would you report for CCCCOC(=O)Nc1ccn(C2OC(COC(=O)CCCC(=O)OC[C@H]3O[C@@H](n4ccc(NC(=O)OCCCC)nc4=O)C(F)(F)[C@@H]3OC(=O)OCCCC)C(OC(=O)OCCCC)C2(F)F)c(=O)n1 (stereo in doubt) [Compound D1] ?
21.75

What would you report for "O=C(CCCC(=O)OC[C@H]1O[C@@H](n2ccc(NC(=O)OCc3ccccc3)nc2=O)C(F)(F)[C@@H]1O)OC[C@H]1O[C@@H](n2ccc(NC(=O)OCc3ccccc3)nc2=O)C(F)(F)[C@@H]1O" ?
22.00

Hello, the source for this data is patent US10351586B2, in case you need it.
